target: UniProtKB P00735; test: Inhibition of bovine plasma thrombin using Boc-Val-Pro-Arg-AMC as substrate at 25 uM preincubated for 15 mins measured after 10 mins by fluorimetric assay
The source made the active and inactive calls.
measuredAttribute: inhibition

Past entries and their recorded results:
                          compoundstructure  reportedresult
0            O=C1NC(=O)/C(=C/c2ccc(Br)s2)N1             22%
1          CN(C)c1ccc(/C=C2\SC(=O)NC2=O)cc1             11%
2  O=C1NC(=O)/C(=C/c2c(F)c(F)c(F)c(F)c2F)N1             18%
3                NC(=O)CC[C@@H]1NC(=S)NC1=O        inactive
4          CN(C)c1ccc(/C=C2\NC(=S)NC2=O)cc1             25%
5         Cn1cc(/C=C2\NC(=O)NC2=O)c2ccccc21             20%
6              O=C1NC(=O)[C@H](Cc2ccccc2)N1        inactive
7            O=C1NC(=S)N/C1=C1/CCOc2ccccc21             18%

Query :: Suppose we examine the compound CC(=O)n1cc(/C=C2\SC(=O)NC2=O)c2ccccc21 ; what inhibition value has been reported?
Result :: inactive

Query :: Suppose we examine the compound COc1cc(/C=C2\NC(=O)NC2=O)ccc1O ; what inhibition value has been reported?
Result :: inactive

###

tested on: Escherichia coli; experiment: Inhibition of Escherichia coli MetAP at 10 uM after 15 mins by fluorescence analysis
Activity calls are given as the source filed them.
measuredAttribute: inhibition

Past entries and their recorded results:
                                  compound            system  measuredattribute  reportedresult
0             O=C1NC(=S)N/C1=C\c1ccc(O)cc1  Escherichia coli         inhibition        inactive
1              O=C1NC(=O)/C(=C/c2ccccc2)S1  Escherichia coli         inhibition        inactive
2       O=C1NC(=S)N[C@H]1Cc1c[nH]c2ccccc12  Escherichia coli         inhibition             13%
3                 O=C1NC(=S)S/C1=C\c1cccs1  Escherichia coli         inhibition        inactive
4        O=C1NC(=O)/C(=C/c2ccc3ccccc3c2)S1  Escherichia coli         inhibition        inactive
5  O=C1NC(=S)S/C1=C\c1ccc([N+](=O)[O-])cc1  Escherichia coli         inhibition             11%
6             O=C1NC(=S)S/C1=C\c1ccc(Cl)s1  Escherichia coli         inhibition        inactive
7                O=C1NC(=S)N/C1=C\c1ccccn1  Escherichia coli         inhibition             95%
8           O=C1NC(=O)/C(=C/c2ccc(Cl)s2)N1  Escherichia coli         inhibition        inactive
9                            O=C1CNC(=S)N1  Escherichia coli         inhibition        inactive

Query :: Suppose we examine the compound O=C1NC(=S)S/C1=C\c1ccc(O)cc1 ; what inhibition value has been reported?
Result :: inactive

Query :: Suppose we examine the compound O=C1NC(=S)N/C1=C\c1ccccc1 ; what inhibition value has been reported?
Result :: 12%

Query :: Suppose we examine the compound CC(=O)N1C(=S)NC(=O)[C@H]1Cc1ccccc1 ; what inhibition value has been reported?
Result :: inactive

Query :: Suppose we examine the compound O=C1NC(=S)N/C1=C\c1ccc(O)c(O)c1 ; what inhibition value has been reported?
Result :: 86%

Query :: Suppose we examine the compound C/C(=C1/NC(=S)NC1=O)c1ccc(F)cc1 ; what inhibition value has been reported?
Result :: 18%

Query :: Suppose we examine the compound COc1ccc(/C=C2\SC(=S)NC2=O)cc1OC ; what inhibition value has been reported?
Result :: inactive

Query :: Suppose we examine the compound O=C1NC(=S)S/C1=C\c1c[nH]c2ccccc12 ; what inhibition value has been reported?
Result :: inactive

Query :: Suppose we examine the compound O=C1NC(=S)S/C1=C\c1ccc2ccccc2c1 ; what inhibition value has been reported?
Result :: 14%

Query :: Suppose we examine the compound CN(C)c1ccc(/C=C2\NC(=O)NC2=O)cc1 ; what inhibition value has been reported?
Result :: inactive

Query :: Suppose we examine the compound COc1ccc(/C=C2\SC(=O)NC2=O)cc1OC ; what inhibition value has been reported?
Result :: 13%

Query :: Suppose we examine the compound CCCCC/C=C1\NC(=S)NC1=O ; what inhibition value has been reported?
Result :: 27%

Query :: Suppose we examine the compound O=C1NC(=O)/C(=C/c2ccccc2)N1 ; what inhibition value has been reported?
Result :: 17%

Query :: Suppose we examine the compound C/C(=C1/NC(=S)NC1=O)c1ccc2ccccc2c1 ; what inhibition value has been reported?
Result :: 15%

Query :: Suppose we examine the compound O=C1NC(=S)N[C@H]1Cc1ccc(O)cc1 ; what inhibition value has been reported?
Result :: inactive

Query :: Suppose we examine the compound O=C1NC(=S)N/C1=C\c1c[nH]c2ccccc12 ; what inhibition value has been reported?
Result :: inactive

Query :: Suppose we examine the compound O=C1NC(=O)/C(=C/c2sccc2Cl)N1 ; what inhibition value has been reported?
Result :: inactive

Query :: Suppose we examine the compound O=C1NC(=O)/C(=C/c2ccc(Cl)cc2Cl)S1 ; what inhibition value has been reported?
Result :: inactive

Query :: Suppose we examine the compound O=C1NC(=O)/C(=C/C=C/c2ccco2)S1 ; what inhibition value has been reported?
Result :: 12%

Query :: Suppose we examine the compound O=C1NC(=S)N/C1=C\c1c(F)c(F)c(F)c(F)c1F ; what inhibition value has been reported?
Result :: 13%

Query :: Suppose we examine the compound Cn1cc(/C=C2\NC(=O)NC2=O)c2ccccc21 ; what inhibition value has been reported?
Result :: inactive

Query :: Suppose we examine the compound O=C1NC(=S)NC1Cc1ccc(O)c(O)c1 (centres undefined) ; what inhibition value has been reported?
Result :: 73%

Query :: Suppose we examine the compound O=C1NC(=O)/C(=C/c2sccc2Br)S1 ; what inhibition value has been reported?
Result :: inactive

Query :: Suppose we examine the compound O=C1NC(=S)SC1Cc1ccccc1 (centres undefined) ; what inhibition value has been reported?
Result :: inactive

Query :: Suppose we examine the compound COc1cccc(/C=C2\NC(=S)NC2=O)c1 ; what inhibition value has been reported?
Result :: 18%

###

system: Dengue virus; assay: Inhibition of Dengue virus NS2B-NS3 protease using Abz-NleKRRS-3-(NO2)Y as substrate at 50 uM preincubated for 15 mins measured every sec for 15 mins by fluorimetric analysis
The source made the active and inactive calls.
measuredAttribute: inhibition

In [3]: df
Out[3]:
                                   molecule  reportedresult
0          CN(C)c1ccc(/C=C2\NC(=O)NC2=O)cc1             29%
1            N#Cc1ccc(/C=C2\NC(=S)NC2=O)cc1             37%
2             COc1cccc(/C=C2\SC(=O)NC2=O)c1             17%
3                  O=C1NC(=S)N/C1=C\c1cccs1             48%
4              O=C1NC(=S)N/C1=C\c1ccc(Br)s1             46%
5         O=C1NC(=O)/C(=C/c2ccc(O)c(O)c2)N1             37%
6  O=C1NC(=O)C(Cc2cccs2)N1 (stereo unspecified)        inactive
7  O=C1NC(=S)SC1Cc1ccccc1 (stereo unspecified)        inactive

Query :: Suppose we examine the molecule O=C1NC(=O)C(Cc2ccccc2)S1 (stereo unspecified) ; what inhibition value has been reported?
Result :: inactive

Query :: Suppose we examine the molecule O=C1NC(=S)N[C@H]1Cc1c[nH]c2ccccc12 ; what inhibition value has been reported?
Result :: inactive

Query :: Suppose we examine the molecule O=C1NC(=O)/C(=C/c2ccc(Cl)cc2Cl)S1 ; what inhibition value has been reported?
Result :: 13%

Query :: Suppose we examine the molecule CC(=O)n1cc(/C=C2\SC(=O)NC2=O)c2ccccc21 ; what inhibition value has been reported?
Result :: 11%

Query :: Suppose we examine the molecule O=C1NC(=O)/C(=C/c2cccc(O)c2)S1 ; what inhibition value has been reported?
Result :: 18%

###

test system: Escherichia coli; test: Inhibition of Escherichia coli MurA using PEP as substrate assessed as inorganic phosphate release at 25 uM preincubated for 10 mins measured after 60 mins […]
Calls of active or inactive are those of the source.
measuredAttribute: inhibition

Past entries and their recorded results:
In [3]: df
Out[3]:
                        compoundstructure  reportedresult
0       O=C1NC(=S)N/C1=C\c1cc2ccccc2[nH]1             15%
1            O=C1NC(=S)N/C1=C\c1cccc(O)c1             21%
2          O=C1NC(=O)/C(=C/c2ccc(Br)s2)S1             62%
3              O=C1NC(=S)N[C@H]1Cc1ccccc1             17%
4  CC(=O)n1cc(/C=C2\SC(=S)NC2=O)c2ccccc21             18%
5               O=C1NC(=S)N/C1=C\c1ccccn1             13%

Query :: Suppose we examine the compound CN(C)c1ccc(/C=C2\SC(=O)NC2=O)cc1 ; what inhibition value has been reported?
Result :: inactive

Query :: Suppose we examine the compound O=C1NC(=S)N/C1=C\c1cnc[nH]1 ; what inhibition value has been reported?
Result :: 57%

Query :: Suppose we examine the compound O=C1NC(=S)N[C@H]1Cc1c[nH]c2ccccc12 ; what inhibition value has been reported?
Result :: 11%

Query :: Suppose we examine the compound CC(=O)N1C(=S)NC(=O)[C@@H]1CC(C)C ; what inhibition value has been reported?
Result :: inactive

Query :: Suppose we examine the compound CCCC/C=C1\NC(=S)NC1=O ; what inhibition value has been reported?
Result :: 11%

Query :: Suppose we examine the compound COc1ccc(/C=C2\SC(=S)NC2=O)cc1 ; what inhibition value has been reported?
Result :: inactive

Query :: Suppose we examine the compound C/C(=C1/SC(=S)NC1=O)c1cccs1 ; what inhibition value has been reported?
Result :: 11%

Query :: Suppose we examine the compound CCCCC/C=C1\NC(=S)NC1=O ; what inhibition value has been reported?
Result :: 17%

Query :: Suppose we examine the compound O=C1NC(=S)S/C1=C\c1cc(Br)cs1 ; what inhibition value has been reported?
Result :: 18%

Query :: Suppose we examine the compound C/C(=C1/SC(=O)NC1=O)c1ccc2ccccc2c1 ; what inhibition value has been reported?
Result :: inactive

Query :: Suppose we examine the compound COc1cc(/C=C2\NC(=S)NC2=O)ccc1O ; what inhibition value has been reported?
Result :: 72%

Query :: Suppose we examine the compound O=C1NC(=S)S/C1=C\c1ccc(Cl)s1 ; what inhibition value has been reported?
Result :: 13%
